B1: HESX1 (parent)
chain: SKYENYFSASERLSLKRELSWYRG

Variants of: B1
PROTOCOL: protein stability index of a GFP-peptide fusion (GPS, HEK-293T) (PSI 1-6); higher = more stable;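 note: lentivirally expressed fusions sorted by FACS into six bins by GFP to DsRed ratio, PSI derived from sequencing read proportions per bin multiplied by bin number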
TEST_CONDITIONS: c terminus: a fixed tail appended
Reported protein stability index values are given for each entry in this list.
Answer as a number with no unit attached.

- SKYENYWSASERLSLKRELSWYRG [F7W]: 1.3
- LKYENYFSASERLSLKRELSWYRG [S1L]: 2.06
- SKYENYFSASERLSLKRELSHYRG [W21H]: 1.73
- SKYECYFSASERLSLKRELSWYRG [N5C]: 1.51
- IKYENYFSASERLSLKRELSWYRG [S1I]: 1.61
- CKYENYFSASERLSLKRELSWYRG [S1C]: 2.04
- SKYENFFSASERLSLKRELSWYRG [Y6F]: 2.88
- SKYENYFSASERLSLKRELSWSRG [Y22S]: 2.22

**Query** Provide one value: measured protein stability index of SKMENYFSASERLSLKRELSWYRG [Y3M]
**Result** 1.59

**Query** Provide one value: measured protein stability index of SKYENYFSASERLSLKRELSWYWG [R23W]
**Result** 1.83

**Query** Provide one value: measured protein stability index of SKYENYFSAYERLSLKRELSWYRG [S10Y]
**Result** 1.67
